TGI: recorded values
# Tested on: SW-620 colon
# test-description: NCI tumour cell line growth inhibition, 48 h

// known answers, use as guide
[
  {
    "compound": "COc1ccc(/C=C2\\C(=O)N(C3OC(COC(C)=O)C(OC(C)=O)C(OC(C)=O)C3OC(C)=O)c3ccccc3N=C2N)cc1 (stereo not given)",
    "target-desc": "SW-620 colon",
    "TGI": "> 100 µM"
  },
  {
    "compound": "COc1ccc2oc(=N)c(C(=O)NCc3ccccc3)cc2c1",
    "target-desc": "SW-620 colon",
    "TGI": "55.6 µM"
  },
  {
    "compound": "CC(C)(Br)C(Br)CCC(C)(Br)C(Br)CO (stereo not given)",
    "target-desc": "SW-620 colon",
    "TGI": "> 10 µM"
  }
]

// next entry
### Prompt Tell me reported TGI for CC#CC#C/C=C1/O[C@]2(CCC(OC(C)=O)CO2)[C@@H]2O[C@H]12 (stereo not given in full) , tested with SW-620 colon.
### Response 95.9 µM

###

Reported GI50 values for the following compounds.
# Test system: RXF 393 renal
# test-description: NCI tumour cell line growth inhibition, 48 h

### Prompt Entry Cc1ccc(-c2cn3ccnc3c(-c3ccc(Cl)cc3)n2)cc1 has what GI50?
### Response 2.16 µM

###

# System: RPMI-8226 leukemia
# test-description: NCI tumour cell line growth inhibition, 48 h
measured-property: TGI

[
  {
    "molecule": "CC(CCC(=O)O)[C@H]1CCC2[C@@H]3CC[C@@H]4CC(O)CC[C@]4(C)C3CC[C@@]21C (stereo not given in full)",
    "TGI": "57.1 µM"
  },
  {
    "molecule": "CCOC(=O)CSc1nc(N)c2c(-c3ccc(OC)c(OC)c3)c3c(nc2n1)CCCC3",
    "TGI": "> 100 µM"
  },
  {
    "molecule": "O=C1c2cccnc2C(=O)c2nc3cc(N4CCN(C5CC5)CC4)ccc3nc21",
    "TGI": "8.63 µM"
  },
  {
    "molecule": "COc1ccc2nc(-c3ccc(-c4noc(-c5cc(OC)c(OC)c(OC)c5)n4)cc3)[nH]c2c1",
    "TGI": "> 100 µM"
  },
  {
    "molecule": "CC(=O)N1C(c2[nH]c3ccccc3c2-c2ccccc2)CCN1c1ccccc1 (stereo not given)",
    "TGI": "> 10 µM"
  }
]

### Prompt Look up TGI: COc1cc(C=C2C(C)=NN(c3cccc(Cl)c3)C23SCC(=O)N3c2nc3ccccc3s2)ccc1O (stereo not given)
### Response 30.7 µM

### Prompt What do you have for CCCC(C)c1cc(Cc2cc(Cl)cc(Cl)c2O)c(O)c(Cc2cc(Cl)cc(Cl)c2O)c1 (stereo not given) ?
### Response 2.5 µM

### Prompt Now consider CC(=O)CCCCC(=O)Nc1ccc(CC(NC(=O)OC(C)(C)C)C(=O)NCC(=O)OCc2ccccc2)cc1 (stereo not given) .
### Response 39.5 µM

###

# System: EKVX NSCLC
# test-description: NCI tumour cell line growth inhibition, 48 h
measured-property: TGI

Previously resolved entries follow.
[
  {
    "compound": "S=c1sc2c(s1)SCCCCSCCCCSc1sc(=S)sc1SCCCCSCCCCS2",
    "TGI": "> 100 µM"
  },
  {
    "compound": "CC1(C)C(=NNC(=O)C[N+](C)(C)C)C(C)(C)C1=NNC(=O)C[N+](C)(C)C",
    "TGI": "> 100 µM"
  },
  {
    "compound": "O=[N+]([O-])C(C(Cl)=C(Cl)Cl)=C(N(Cc1ccccc1)Cc1ccccc1)N(Cc1ccccc1)Cc1ccccc1",
    "TGI": "> 100 µM"
  },
  {
    "compound": "COc1ccc(-c2csc(N(C(=O)N3CCN(c4cc5c(cc4F)c(=O)c(C(=O)O)cn5C4CC4)CC3)c3ccccc3)n2)cc1",
    "TGI": "> 100 µM"
  },
  {
    "compound": "CC(=O)OCC1OC(SC2=N/C(=C\\c3cc4c(=O)c5ccccc5sc4s3)C(=O)N2c2ccccc2)C(OC(C)=O)C(OC(C)=O)C1OC(C)=O (stereo not given)",
    "TGI": "> 100 µM"
  }
]

Then this compound:
### Prompt // lookup TGI | system=EKVX NSCLC | key= Cn1cccc1-c1cc(-c2cccs2)nc(N)c1C#N
### Response > 100 µM
